test: Caco-2 cell monolayer transport (absorption, AP → BL), HPLC-DAD; details: human, Caco-2, Recovery rate, total compound in donor and receiver at end / initial compound; Caco-2, 90 min; Mean ± SD, n ≥ 3
assay-readout: recovery at 1.5 h (%)

I have this compound here, OC[C@H]1O[C@@H](Oc2cc(O)cc(/C=C/c3ccc(O)cc3)c2)[C@H](O)[C@@H](O)[C@@H]1O , and I need its recorded recovery at 1.5 h. 59.9

I. Oc1ccc(/C=C/c2cc(O)cc(O)c2)cc1
II. OC[C@H]1O[C@@H](Oc2c(O)cc(O)cc2/C=C/c2ccc(O)cc2)[C@H](O)[C@@H](O)[C@@H]1O
Recorded recovery at 1.5 h values differ for I and II ; which one is higher? Returns: label corresponding to the selected item. I

---

test: Caco-2 cell monolayer transport (absorption, AP → BL), HPLC-DAD; conditions: human, Caco-2
assay-readout: Papp at 1.5 h (×10⁻⁶ cm/s)

Solved entries (count: 3):
Which Papp at 1.5 h value belongs to Cc1cc(O)c2c(c1)C(=O)c1cc(O)cc(O)c1C2=O [EN, emodin] ? 0.00248

Same again, this time with O=C(O)c1cc(O)c2c(c1)C(=O)c1cccc(O)c1C2=O [RN, rhein] 0.0171

Request: O=C1c2cccc(O)c2C(=O)c2c(O)cc(CO)cc21 [AE, aloe-emodin] 0.0195

a. Oc1ccc(/C=C/c2cc(O)cc(O)c2)cc1 [RL, resveratrol]
b. CC(C)NCC(O)COc1cccc2ccccc12 (stereo not shown) [PR, Propranolol, reference compound]
c. OC[C@H]1O[C@@H](Oc2c(O)cc(O)cc2/C=C/c2ccc(O)cc2)[C@H](O)[C@@H](O)[C@@H]1O [TSG]
d. OC[C@H]1O[C@@H](Oc2cc(O)cc(/C=C/c3ccc(O)cc3)c2)[C@H](O)[C@@H](O)[C@@H]1O [PL, polydatin]
Arrange these molecules by their Papp at 1.5 h, starting with the largest number. Enter labels, ranked according to the request. b, a, d, c

---

The entries below come with measured recovery at 1.5 h values attached.
test: Caco-2 cell monolayer transport (absorption, AP → BL), HPLC-DAD; conditions: human, Caco-2
Enter your answer as a number in %; do not include the unit.

Name the reported recovery at 1.5 h value associated with the compound Cc1cc(O)c2c(c1)C(=O)c1cc(O)cc(O)c1C2=O [EN, emodin] 14.5

Note: attention shifts to another entry.
recovery at 1.5 h lookup needed for O=C1c2cccc(O)c2C(=O)c2c(O)cc(CO)cc21 [AE, aloe-emodin] , thanks. 42.4
